# target: T1, CD19 (UniProt P15391 20-556, limits assumed)
# T1 construct: whole, on cells; also called CD19 on JeKo-1
# T1 sequence (looked up): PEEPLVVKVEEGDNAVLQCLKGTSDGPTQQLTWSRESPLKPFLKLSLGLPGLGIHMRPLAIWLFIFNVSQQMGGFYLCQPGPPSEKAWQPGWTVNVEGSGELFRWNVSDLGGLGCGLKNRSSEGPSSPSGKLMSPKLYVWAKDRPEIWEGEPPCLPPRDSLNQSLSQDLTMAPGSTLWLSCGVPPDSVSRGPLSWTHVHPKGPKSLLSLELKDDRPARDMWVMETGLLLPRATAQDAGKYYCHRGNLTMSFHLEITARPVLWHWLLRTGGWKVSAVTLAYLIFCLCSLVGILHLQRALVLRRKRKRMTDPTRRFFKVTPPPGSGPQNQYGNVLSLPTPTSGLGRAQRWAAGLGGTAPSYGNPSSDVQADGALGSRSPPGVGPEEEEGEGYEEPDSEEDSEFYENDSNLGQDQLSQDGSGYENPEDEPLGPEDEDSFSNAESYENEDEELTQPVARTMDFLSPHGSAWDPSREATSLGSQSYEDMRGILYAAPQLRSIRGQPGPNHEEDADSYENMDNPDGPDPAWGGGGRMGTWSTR
# protocolDescription: flow cytometry, JeKo-1 cells, bridge at saturating conc., BIL03s-AF647 detection
recordedEndpoint: MFI Bil03 AF647

Need MFI Bil03 AF647, item CD19 BRIDGE variant B19 (Fab, V domains shown) VH: EVQLVESGGGLVKPGGSLKLSCAASGYTFTSYVMHWVRQAPGKGLEWIGYINPYNDGTKYNEKFQGRVTISSDKSISTAYMELSSLRSEDTAMYYCARGTYYYGTRVFDYWGQGTLVTVSS VL: DIVMTQSPATLSLSPGERATLSCRSSKSLQNVNGNTYLYWFQQKPGQSPQLLIYRMSNLNSGVPDRFSGSGSGTEFTLTISSLEPEDFAVYYCMQHLEYPITFGAGTKLEIKR
4.9
